# ASSAY_TARGET: Recombinant human BRD4 containing dual bromodomains (BRD4-BD12 (1-477)) (Homo sapiens, UniProt O60885)
# Construct: Recombinant human BRD4 containing dual bromodomains (BRD4-BD12 (1-477))
# PROTOCOL: BRD4 Alphascreen binding assay
pIC50: −log10 of the molar value.
The following molecules are listed with their measured pIC50 values.
OUTCOME_MEASURE: pIC50

MOLECULE	VALUE
Cc1noc(C)c1-c1cnc2c(C(=O)C3CCC3)cn(-c3c(Cl)cc(C(=O)O)cc3Cl)c2c1 [P-0121]	5.10 to 6.00
Cc1noc(C)c1-c1cnc2c(c1)c(-c1ccc(C(=O)O)cc1OC(F)(F)F)cn2-c1cnn(CC(C)(C)O)c1 [P-0294]	6.00 to 10.00
COc1cc(C(=O)O)cc(O)c1-c1cn([C@@H](C)c2ccccn2)c2ncc(-c3c(C)noc3C)cc12 [P-0144]	3.00 to 5.10
Cc1noc(C)c1-c1cnc2c(c1)c(-c1ccc(C(=O)O)cc1)cn2C(c1ccccn1)C1CC1 (centres unmarked) [P-0007]	3.00 to 5.10
Cc1noc(C)c1-c1cnc2c(c1)c(-c1cccc(C(=O)O)c1)cn2C(C1CC1)C1CC1 [P-0058]	3.00 to 5.10
CCOc1cc(C(=O)O)nc(OCC)c1-c1cn(-c2ccc(C#N)cc2F)c2ncc(-c3c(C)noc3C)cc12 [P-0423]	5.10 to 6.00
Cc1cc(C(=O)O)cc(OC(C)C)c1-c1cn(C2CCOCC2)c2ncc(-c3c(C)noc3C)cc12 [P-0402]	5.10 to 6.00
Cc1cc(C(=O)O)cnc1-n1cc(CC2CCC2)c2ncc(-c3c(C)noc3C)cc21 [P-0075]	3.00 to 5.10
